Items are presented alongside their recorded parasite survival.
Tested on: Toxoplasma gondii RH 2F1 tachyzoites (intracellular in HFF)
experiment: parasite survival relative to DMSO control; higher = less antiparasitic activity, active = 20 or less
condition parameters: 1 µM; 72 h
Write it as a number; the unit % goes unstated.

# compound, unit spec, parasite survival
rows = [
    ("O=C(CP(=O)(O)O)NCCc1cccc(Oc2ccccc2)c1", "%", 40.8),
    ("O=c1oc2ccc(Br)cc2cc1CSc1ncc[nH]1", "%", 63.6),
    ("NNC(=O)c1ccncc1", "%", 63.2),
    ("CCc1nc2ccc(Cl)cn2c1C(=O)NCc1ccc(N2CCC(c3ccc(OC(F)(F)F)cc3)CC2)cc1", "%", 28.9),
    ("CCc1nc(N)nc(N)c1C#CC(C)c1cc(OC)cc(-c2ccncc2)c1 (configuration not stated)", "%", 4.08),
    ("Cc1cc(Nc2ccc(F)cc2)nc(SCc2nc3ccccc3[nH]2)n1", "%", 42.4),
    ("COCCn1cnc2c(O)nc(Nc3ccccc3)nc21", "%", 67),
    ("O=c1nc(N2CCN(CC3CCCCC3)CC2)sc2c([N+](=O)[O-])cc(C(F)(F)F)cc12", "%", 43.6),
    ("Nc1nc2c(ncn2COCCO)c(=O)[nH]1", "%", 67.4),
    ("COc1cc(NS(=O)(=O)c2ccc(C)cc2)c2ncccc2c1", "%", 2.97),
]

Endpoint output: parasite survival of C[C@H]1COc2c(N3CCN(C)CC3)c(F)cc3c(=O)c(C(=O)O)cn1c23 . Value?
51.4

Endpoint output: parasite survival of Fc1ccc2c(/C=C/c3nnn[nH]3)c[nH]c2c1 . Value?
47.3

Endpoint output: parasite survival of O=S(=O)(NCB(O)O)c1cc2c(Cl)ccc(Cl)c2s1 . Value?
54.4

src = the supplement of paper PMC10941209
